Provide the reported switch fluorescence ratio of each item.
Tested on: ATP;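 also: ATP exposure 15 min at 22 °C before imaging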
Assay: switch fluorescence ratio, 500 uM ATP over buffer (Cy3 cluster intensity, sum of 5 cycles each) (fold (ratio)); higher = stronger signal-on switching upon ATP binding; sequences stand for … in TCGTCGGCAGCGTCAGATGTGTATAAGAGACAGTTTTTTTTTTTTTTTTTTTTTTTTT…TC
Conditions: aptamer strand: ATP DNA aptamer (quencher-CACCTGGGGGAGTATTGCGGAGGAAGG + anchor), 100 nM annealed; ATP concentration: 500 uM
The reply should be a number, written without any unit.

Request: Consider the sequence TAAAGGATAT and give its recorded switch fluorescence ratio.
Response: 1.01

Request: Consider the sequence ATTTGGGACT and give its recorded switch fluorescence ratio.
Response: 1.03

Request: Consider the sequence TGTTTTTTGC and give its recorded switch fluorescence ratio.
Response: 0.995

Request: Consider the sequence AATTTTTTCA and give its recorded switch fluorescence ratio.
Response: 0.99

Request: Consider the sequence TTAAATGTTT and give its recorded switch fluorescence ratio.
Response: 0.994

Request: Consider the sequence TATTCGGTTT and give its recorded switch fluorescence ratio.
Response: 0.989

Request: Consider the sequence GTTGTAGTCT and give its recorded switch fluorescence ratio.
Response: 1.02

Request: Consider the sequence GGGTCATGTA and give its recorded switch fluorescence ratio.
Response: 1.01

Request: Consider the sequence TTTATGTCGG and give its recorded switch fluorescence ratio.
Response: 1

Request: Consider the sequence TTTATTTTGT and give its recorded switch fluorescence ratio.
Response: 1

Request: Consider the sequence AGTTCTCAGT and give its recorded switch fluorescence ratio.
Response: 0.997

Request: Consider the sequence GAATTTGAGC and give its recorded switch fluorescence ratio.
Response: 1.03

Request: Consider the sequence ATCAATTCGA and give its recorded switch fluorescence ratio.
Response: 1.02

Request: Consider the sequence TGTGTGTTTA and give its recorded switch fluorescence ratio.
Response: 1.01

Request: Consider the sequence ATGATGTAAT and give its recorded switch fluorescence ratio.
Response: 0.995

Request: Consider the sequence GGATTAGACG and give its recorded switch fluorescence ratio.
Response: 0.955

Request: Consider the sequence CATATCTGAT and give its recorded switch fluorescence ratio.
Response: 1.01

Request: Consider the sequence CTTGTCTGAG and give its recorded switch fluorescence ratio.
Response: 0.982

Request: Consider the sequence TTATACTGAA and give its recorded switch fluorescence ratio.
Response: 1.05

Request: Consider the sequence AGCAGAAATC and give its recorded switch fluorescence ratio.
Response: 1.07

Request: Consider the sequence TATGTCAAGC and give its recorded switch fluorescence ratio.
Response: 0.96

Request: Consider the sequence CAGGGTTTTT and give its recorded switch fluorescence ratio.
Response: 0.999

Request: Consider the sequence ATTATTCGGA and give its recorded switch fluorescence ratio.
Response: 1.01

###

Tested on: ATP;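 also: ATP exposure 15 min at 22 °C before imaging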
Experiment: switch fluorescence ratio, 500 uM ATP over buffer (Cy3 cluster intensity, sum of 5 cycles each) (fold (ratio)); higher = stronger signal-on switching upon ATP binding; sequences stand for … in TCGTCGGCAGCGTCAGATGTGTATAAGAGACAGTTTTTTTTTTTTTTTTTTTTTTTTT…TC
Settings: aptamer strand: ATP DNA aptamer (quencher-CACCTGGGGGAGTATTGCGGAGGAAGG + anchor), 100 nM annealed; ATP concentration: 500 uM
quantity.name: switch fluorescence ratio
The reply should be a number, written without any unit.

Request: Consider the sequence GTGGGCGGTC and give its recorded switch fluorescence ratio.
Response: 0.995

Request: Consider the sequence GAAATCTTTT and give its recorded switch fluorescence ratio.
Response: 1.07

Request: Consider the sequence ATACGATTTG and give its recorded switch fluorescence ratio.
Response: 0.971

Request: Consider the sequence CTTTTATCAC and give its recorded switch fluorescence ratio.
Response: 1.25

Request: Consider the sequence AGCTGTTTC and give its recorded switch fluorescence ratio.
Response: 1

Request: Consider the sequence ATGGGACCGT and give its recorded switch fluorescence ratio.
Response: 1.01

Request: Consider the sequence GACTGAGGGG and give its recorded switch fluorescence ratio.
Response: 1.02

Request: Consider the sequence CGCTTTGGGT and give its recorded switch fluorescence ratio.
Response: 0.99

Request: Consider the sequence TTGGGAGAAT and give its recorded switch fluorescence ratio.
Response: 1.02

Request: Consider the sequence GGGCAGGTGG and give its recorded switch fluorescence ratio.
Response: 1.08

Request: Consider the sequence TAAGCGTTGT and give its recorded switch fluorescence ratio.
Response: 0.98

Request: Consider the sequence TTCATTGTCG and give its recorded switch fluorescence ratio.
Response: 0.929

Request: Consider the sequence ACTTCGGTTT and give its recorded switch fluorescence ratio.
Response: 1.01

Request: Consider the sequence CGAGCAGTAG and give its recorded switch fluorescence ratio.
Response: 3.57

Request: Consider the sequence GGTTACGGGG and give its recorded switch fluorescence ratio.
Response: 1.01

Request: Consider the sequence GAATTGGGGG and give its recorded switch fluorescence ratio.
Response: 1.01

Request: Consider the sequence GTTGGTGGGG and give its recorded switch fluorescence ratio.
Response: 0.957

Request: Consider the sequence TGCGAGTGCT and give its recorded switch fluorescence ratio.
Response: 0.976

Request: Consider the sequence TGCGAGTTCT and give its recorded switch fluorescence ratio.
Response: 1

Request: Consider the sequence CGGGAGTGTC and give its recorded switch fluorescence ratio.
Response: 0.897

Request: Consider the sequence CAAGGGTGGT and give its recorded switch fluorescence ratio.
Response: 1.03

Request: Consider the sequence AGGGATAAAT and give its recorded switch fluorescence ratio.
Response: 1.01

Request: Consider the sequence GGTATCCGTG and give its recorded switch fluorescence ratio.
Response: 1.02

Request: Consider the sequence TTAGGCTGGG and give its recorded switch fluorescence ratio.
Response: 1.02

Request: Consider the sequence ACTAGAGGCA and give its recorded switch fluorescence ratio.
Response: 1

Request: Consider the sequence CGGCTACCCG and give its recorded switch fluorescence ratio.
Response: 0.989

Request: Consider the sequence TTGTTGAAAT and give its recorded switch fluorescence ratio.
Response: 1.03

Request: Consider the sequence AAGAGAGGTG and give its recorded switch fluorescence ratio.
Response: 1.07

Request: Consider the sequence ACATAGATTA and give its recorded switch fluorescence ratio.
Response: 1.03

Request: Consider the sequence GTTTCTGGTG and give its recorded switch fluorescence ratio.
Response: 1.13

Request: Consider the sequence AATCTTTGTG and give its recorded switch fluorescence ratio.
Response: 0.976

Request: Consider the sequence GAGTGAGTAC and give its recorded switch fluorescence ratio.
Response: 1

Request: Consider the sequence ACTGTGCGAC and give its recorded switch fluorescence ratio.
Response: 1.58

Request: Consider the sequence TAAACTAAAA and give its recorded switch fluorescence ratio.
Response: 0.975

Request: Consider the sequence AGTGGGAAGG and give its recorded switch fluorescence ratio.
Response: 0.956

Request: Consider the sequence AGCGGGTAGA and give its recorded switch fluorescence ratio.
Response: 0.986

Request: Consider the sequence GGGGTCAGTT and give its recorded switch fluorescence ratio.
Response: 0.973

Request: Consider the sequence TTGTTAGGAA and give its recorded switch fluorescence ratio.
Response: 1.01

Request: Consider the sequence TACCAGTGCG and give its recorded switch fluorescence ratio.
Response: 1.19

Request: Consider the sequence CTAATATTAA and give its recorded switch fluorescence ratio.
Response: 0.999

Request: Consider the sequence GGGGCTGGGT and give its recorded switch fluorescence ratio.
Response: 1.02

Request: Consider the sequence GGCACGGGGG and give its recorded switch fluorescence ratio.
Response: 1.02

Request: Consider the sequence GCTAGGGTA and give its recorded switch fluorescence ratio.
Response: 0.997

Request: Consider the sequence TGTTGCGTGG and give its recorded switch fluorescence ratio.
Response: 0.992

Request: Consider the sequence CGGTTTGGCT and give its recorded switch fluorescence ratio.
Response: 1.08

Request: Consider the sequence GATATAGAGG and give its recorded switch fluorescence ratio.
Response: 0.986

Request: Consider the sequence ACGTTGGGCA and give its recorded switch fluorescence ratio.
Response: 0.99

Request: Consider the sequence ATAAACGTTA and give its recorded switch fluorescence ratio.
Response: 1.1

Request: Consider the sequence GGTTTAGTCA and give its recorded switch fluorescence ratio.
Response: 0.972

Request: Consider the sequence GCAGCTGGCG and give its recorded switch fluorescence ratio.
Response: 1.04
